System: T-47D breast
Assay: NCI-60 one-dose screen, 48 h (100 = growth as untreated, 0 = no growth, -100 = all killed)
Details: 10 µM unless noted
This is part of a sample that, as a whole, favours compounds with a hit. Of some 83,000 tested, about 20% had one in any assay.
One threshold, 40%, splits the recorded growth values: lower ones are TRUE, equal or higher ones are FALSE.

The following compounds have reported results that may help.
- COc1ccc(-c2nc3ccc(-c4nnc(SCC(=O)Nc5ccc(C(=O)/C=C/c6ccc(Cl)cc6)cc5)o4)cc3[nH]2)cc1: FALSE
- COc1ccc2c(c1)c(CC(=O)[Se]CC#N)c(C)n2C(=O)c1ccc(Cl)cc1: TRUE
- C=CCOc1cccc(/C=C2\SC(=S)N(C3CC(=O)N(c4ccc(Br)cc4)C3=O)C2=O)c1 (stereo not drawn): FALSE
- O=c1c2ccccc2nc(COc2ccccc2)n1NS(=O)(=O)c1ccc(Cl)cc1: FALSE

Problem: Does the reported growth of the following compound sit strictly below 40%? `O=C(Nc1cccc(C(F)(F)F)c1)c1cc(-c2ccc(F)cc2F)ccc1O`
Result: TRUE

* * *

System: MDA-MB-231 breast
Experiment: NCI-60 one-dose screen, 48 h (100 = growth as untreated, 0 = no growth, -100 = all killed)
Conditions: 10 µM unless noted
About 83,000 compounds went through this panel and 20% of them were active in at least one assay; those are over-represented in the sample as a whole.
Recorded growth by entry
Please reply with the bare figure in % and do not write the unit itself.

* NC(=O)c1cccc(-n2ccc3cc(NC(=O)Nc4ccc(N5CCOCC5)c(C(F)(F)F)c4)ccc32)n1 | 16
* C#CCC#CCN1CCC[C@H]1C(=O)NCC(=O)OC | 106
* C=CC(=O)N1CCC=C(c2cc3c(N[C@H](C)c4ccccc4)ncnc3[nH]2)C1 | 44.4

Problem: GET /values?readout=growth&system=MDA-MB-231 breast&item= CC(=O)N1N=C(c2cccc(-n3cccc3)c2)CC1c1cccc(F)c1 (stereo not given)
Result: 94.8

Problem: GET /values?readout=growth&system=MDA-MB-231 breast&item= `O=C(CSc1nc2ccccc2c(=O)n1-c1ccccc1)Nc1cccc(C(=O)/C=C/c2ccccc2)c1`
Result: 94.3

* * *

Recorded growth by entry
System: NCI-H23 lung
Assay: NCI-60 one-dose screen, 48 h (100 = growth as untreated, 0 = no growth, -100 = all killed)
Conditions: 10 µM unless noted
About 83,000 compounds went through this panel and 20% of them were active in at least one assay; those are over-represented in the sample as a whole. Calls of active or inactive are those of the source. The calls were made as follows: active = growth percent below 10; inactive = the rest.

As a guide, the following entries are already answered.
* COc1cc(/C=C/C(=O)c2ccc(NC(=O)CSc3nnc(-c4ccc(-c5nc6ccc(Cl)cc6[nH]5)cc4)o3)cc2)cc(OC)c1OC | 101% (inactive)
* CCn1c(SCC(=O)Nc2cccc(C(=O)/C=C/c3ccccc3Cl)c2)nc2ccccc2c1=O | 69.5% (inactive)
* COc1ccc(C(=O)Nc2ncc(Cc3ccccc3Cl)s2)cc1 | 17.9% (inactive)
* C=C1CC[C@@H]2[C@]3(C)COC(c4ccccc4)O[C@@H]3CC[C@@]2(C)[C@@H]1C/C=C1/C(=O)OC[C@H]1O (stereo not given in full) | 96.8% (inactive)
* CCCn1cnc2c(c1=N)C(c1ccc(Cl)cc1)c1sc3c(C)cccc3c1O2 (stereo not given) | 20.5% (inactive)
* O=C(NNc1nc2cc(F)ccc2n2c(CN3CCC(O)C3)ccc12)c1cnccn1 (stereo not given) | 20.2% (inactive)
* CN1CCN(c2ccc(/C=N/Nc3nc4ccccc4c(=O)n3-c3ccccc3)cc2)CC1 | 103% (inactive)
* COc1cc(/C=N/NC(=O)c2cn(C3CC3)c3c(OC)c(N4CC5CCCNC5C4)c(F)cc3c2=O)ccc1O (stereo not given) | 55.4% (inactive)

Problem: Using the record for `C#Cc1nc(/C=C/C(=O)c2nccn2C)cs1` , report its growth.
Result: -69.3% (active)

Problem: Using the record for `CCCCCc1ccc(S(=O)(=O)Nc2cccc(-c3csc(NC(=O)CCCCCN4CCN(C)CC4)n3)c2)cc1` , report its growth.
Result: 75.7% (inactive)
